- Test system: HPV-16
- PROCEDURE_TEXT: qPCR on 20 ng DNA from saliva samples of HPV-HNSCC patients
- ASSAY_CONTEXT: 28 HPV-HNSCC saliva samples
QUANTITY_KIND: sensitivity of detection from saliva 20 ng DNA samples (%)
Numbers only, in %.

// known answers, use as guide
>>> observed_measurement("HR E5L2-4: primer/probe set for junction between E5 and L2, SEQ ID NO: 55-57 (same as SEQ ID NO: 4-6) (nucleic acid, chemistry not given here) DNA 1: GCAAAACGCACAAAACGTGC DNA 2: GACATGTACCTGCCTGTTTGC DNA 3: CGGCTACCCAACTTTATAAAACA")
46.4
>>> observed_measurement("BR E1-5: HPV-16 E1 region primer/probe set, SEQ ID NO: 40-42 (same as SEQ ID NO: 1-3) (nucleic acid, chemistry not given here) DNA 1: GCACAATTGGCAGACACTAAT DNA 2: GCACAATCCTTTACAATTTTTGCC DNA 3: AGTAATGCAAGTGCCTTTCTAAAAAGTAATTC")
35.7
>>> observed_measurement("E7: previously designed (historical) HPV-16 E7 primers and Taqman probe, SEQ ID NO: 10-12; part of CLIA test (nucleic acid, Taqman probe, labels not given here, part of CLIA test) DNA 1: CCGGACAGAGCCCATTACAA DNA 2: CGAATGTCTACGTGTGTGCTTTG DNA 3: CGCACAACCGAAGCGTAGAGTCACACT")
42.9

Now for a further molecule.
Query: Return reported sensitivity of detection from saliva 20 ng DNA samples. Input molecule: E6: previously designed (historical) HPV-16 E6 primers and Taqman probe, SEQ ID NO: 7-9, positive control (nucleic acid, Taqman probe, labels not given here) DNA 1: TCAGGACCCACAGGAGCG DNA 2: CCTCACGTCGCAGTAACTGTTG DNA 3: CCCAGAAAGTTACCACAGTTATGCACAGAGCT
Response: 32.1
